Assay: Pharmacokinetic measurements in rats (i.v., i.t., oral)
Assay type: in vivo
Conditions: rat, i.t. dose 0.1 (nintedanib 0.42), 0.1 h
Structures can show the parent of a compound that is named as a salt.
EXPERIMENTAL_READOUT: BAL % administered dose at time 0.1 h (%)
Note: unit % is implicit; provide only the numeric part.

Exercise: Give its BAL % administered dose at time 0.1 h value. Item: `COC(=O)c1cc2c(cc1C)/C(=C(/Nc1ccc(C(=O)NCCN3CCC(N(C)C)CC3)cc1)c1ccccc1)C(=O)N2`
Key: 14

Exercise: Which BAL % administered dose at time 0.1 h is reported for this molecule? COC(=O)c1cc2c(cc1C)/C(=C(/Nc1ccc(C(=O)NCC3CCN(C)CC3)cc1)c1ccccc1)C(=O)N2 [Example 3, formate]
Key: 14

Exercise: Fill in: BAL % administered dose at time 0.1 h of `COC(=O)c1cc2c(cc1C)/C(=C(/Nc1ccc(C(=O)NCCN3CCCN(C)CC3)cc1)c1ccccc1)C(=O)N2` is ___
Key: 13.6

Exercise: // returns reported BAL % administered dose at time 0.1 h for input `COC(=O)c1cc2c(cc1C)/C(=C(/Nc1ccc(C(=O)NCC(=O)N3CCN(CCO)CC3)cc1)c1ccccc1)C(=O)N2`
Key: 3.5

Exercise: For the molecule shown here, COC(=O)c1cc2c(cc1C)/C(=C(/Nc1ccc(C(=O)NC3CCN(C)CC3)cc1)c1ccccc1)C(=O)N2 [Example 18, formate] , give the reported BAL % administered dose at time 0.1 h.
Key: 6.7

Exercise: Could you share which BAL % administered dose at time 0.1 h value was measured for `COC(=O)c1cc2c(cc1C)/C(=C(/Nc1ccc(C(=O)NCCN3CCN(C)CC3)cc1)c1ccccc1)C(=O)N2` ?
Key: 3.4

Exercise: Which measured BAL % administered dose at time 0.1 h value corresponds to COC(=O)c1ccc2c(c1)NC(=O)/C2=C(\Nc1ccc(N(C)C(=O)CN2CCN(C)CC2)cc1)c1ccccc1 [Nintedanib, reference compound] ?
Key: 2

Exercise: BAL % administered dose at time 0.1 h lookup needed for `COC(=O)c1cc2c(cc1C)/C(=C(/Nc1ccc(C(=O)NCCN3CCNC(=O)C3)cc1)c1ccccc1)C(=O)N2` , thanks.
Key: 13.7

###

Experiment: Pharmacokinetic measurements in rats (i.v., i.t., oral)
Assay type: in vivo
Conditions: rat, 24 h
Counter-ions that a name gives are not always drawn.
Exercise: for every item that follows, state its recorded Lung conc i.t./i.v. Ratio at time 24 h.
Just the number, please, no unit attached.

Exercise: Look up Lung conc i.t./i.v. Ratio at time 24 h for this compound: `COC(=O)c1cc2c(cc1C)/C(=C(/Nc1ccc(C(=O)NCCN3CCNC(=O)C3)cc1)c1ccccc1)C(=O)N2`
Key: 21

Exercise: Return reported Lung conc i.t./i.v. Ratio at time 24 h; argument: `COC(=O)c1cc2c(cc1C)/C(=C(/Nc1ccc(C(=O)NCCN3CCC(N(C)C)CC3)cc1)c1ccccc1)C(=O)N2`
Key: 7.7

Exercise: Return reported Lung conc i.t./i.v. Ratio at time 24 h; argument: `COC(=O)c1cc2c(cc1C)/C(=C(/Nc1ccc(C(=O)NCCN3CCCN(C)CC3)cc1)c1ccccc1)C(=O)N2`
Key: 7

Exercise: # query: Lung conc i.t./i.v. Ratio at time 24 h of entry COC(=O)c1cc2c(cc1C)/C(=C(/Nc1ccc(C(=O)NCC3CCN(C)CC3)cc1)c1ccccc1)C(=O)N2 [Example 3, formate]
Key: 14

###

System: MRC5 cells
Assay: Cell viability assay in MRC5 cells (MTT)
Settings: 1000 nM
Counter-ions that a name gives are not always drawn.
// map Cell viability at 1000 nM (%) onto a label; ranges lower level (below 30%), middle level (30% to below 80%), upper level (80% or more)

Exercise: read the entry COC(=O)c1cc2c(cc1C)/C(=C(/Nc1ccc(C(=O)NCC(=O)N3CCN(CCO)CC3)cc1)c1ccccc1)C(=O)N2 [Example 7] and state which class it falls under.
Key: middle level

Exercise: Which of the defined bands does the recorded Cell viability at 1000 nM (%) of COC(=O)c1cc2c(cc1C)/C(=C(/Nc1ccc(C(=O)N3CCC(O)(CN4CCCC4)CC3)cc1)c1ccccc1)C(=O)N2 [Example 37, formate] sit within?
Key: lower level

Exercise: Band for COC(=O)c1cc2c(cc1C)/C(=C(/Nc1ccc(C(=O)NCCN3CCCN(C(C)=O)CC3)cc1)c1ccccc1)C(=O)N2 [Example 34] ?
Key: lower level

Exercise: Please classify: COC(=O)c1cc2c(cc1C)/C(=C(/Nc1ccc(C(=O)N(C)C3CCN(CCO)CC3)cc1)c1ccccc1)C(=O)N2 [Example 41]
Key: lower level

Exercise: Note: place this molecule into its band. Item: COC(=O)c1cc2c(cc1C)/C(=C(/Nc1ccc(C(=O)N3CCC4(CC3)C(=O)NCCN4C)cc1)c1ccccc1)C(=O)N2 [Example 30]
Key: lower level

Exercise: Given COC(=O)c1cc2c(cc1C)/C(=C(/Nc1ccc(C(=O)NCCN3CCS(=O)(=O)CC3)cc1)c1ccccc1)C(=O)N2 [Example 52] , name the class its Cell viability at 1000 nM (%) places it in.
Key: upper level

Exercise: Category of COC(=O)c1cc2c(cc1C)/C(=C(/Nc1ccc(C(=O)NCC3CCN(CCO)CC3)cc1)c1ccccc1)C(=O)N2 [Example 14] , please.
Key: middle level

Exercise: Kindly identify the class of COC(=O)c1cc2c(cc1C)/C(=C(/Nc1ccc(C(=O)NCCN3CCNC(=O)C3)c(F)c1)c1ccccc1)C(=O)N2 [Example 55] .
Key: upper level

Exercise: Assign a bin to COC(=O)c1cc2c(cc1C)/C(=C(/Nc1ccc(C(=O)NCCC(=O)N3CCN(C)CC3)cc1)c1ccccc1)C(=O)N2 [Example 10]
Key: upper level

Exercise: Kindly identify the class of COC(=O)c1cc2c(cc1C)/C(=C(/Nc1ccc(C(=O)NCCN3CCCN(C)CC3)cc1)c1ccccc1)C(=O)N2 [Example 5] .
Key: upper level

Exercise: Record COC(=O)c1cc2c(cc1C)/C(=C(/Nc1ccc(C(=O)N3CCN(CCO)CC3)cc1)c1ccccc1)C(=O)N2 [Example 19] — which class?
Key: lower level

Exercise: Which category does the recorded Cell viability at 1000 nM (%) put COC(=O)c1cc2c(cc1C)/C(=C(/Nc1ccc(C(=O)NCCN3CCNC(=O)CC3)cc1)c1ccccc1)C(=O)N2 [Example 53] in?
Key: upper level

Exercise: Could you tell me which band COCCN(C)CCNC(=O)c1ccc(N/C(=C2\C(=O)Nc3cc(C(=O)OC)c(C)cc32)c2ccccc2)cc1 [Example 35] belongs to?
Key: upper level

Exercise: Band for COC(=O)c1ccc2c(c1)NC(=O)/C2=C(\Nc1ccc(N(C)C(=O)CN2CCN(C)CC2)cc1)c1ccccc1 [Nintedanib, reference compound] ?
Key: upper level

Exercise: Lab log: COC(=O)c1cc2c(cc1C)/C(=C(/Nc1ccc(C(=O)N3CCCN(CCO)CC3)cc1)c1ccccc1)C(=O)N2 [Example 46] — assign Cell viability at 1000 nM (%) category
Key: lower level

Exercise: Lab note: sort COC(=O)c1cc2c(cc1C)/C(=C(/Nc1ccc(C(=O)N(C)[C@H]3CN(C)C[C@@H]3O)cc1)c1ccccc1)C(=O)N2 [Example 48] into the matching Cell viability at 1000 nM (%) band.
Key: lower level

Exercise: # bin label for COC(=O)c1cc2c(cc1C)/C(=C(/Nc1ccc(C(=O)NC3CCN(C)CC3)cc1)c1ccccc1)C(=O)N2 [Example 18, formate]
Key: upper level

Exercise: Note: place this molecule into its band. Item: COC(=O)c1cc2c(cc1C)/C(=C(/Nc1ccc(S(=O)(=O)NCCN3CCN(C)CC3)cc1)c1ccccc1)C(=O)N2 [Example 1]
Key: middle level

Exercise: Which class does COC(=O)c1cc2c(cc1C)/C(=C(/Nc1ccc(C(=O)N[C@H]3CCCN(C)C3)cc1)c1ccccc1)C(=O)N2 [Example 27] fall in?
Key: upper level

Exercise: Form: Item = COC(=O)c1cc2c(cc1C)/C(=C(/Nc1ccc(C(=O)NCCN3CCC(CO)CC3)cc1)c1ccccc1)C(=O)N2 [Example 42] ; Class = ?
Key: middle level

Exercise: Lab note: sort COC(=O)c1cc2c(cc1C)/C(=C(/Nc1ccc(C(=O)NC3CCN(CCO)CC3)cc1)c1ccccc1)C(=O)N2 [Example 13] into the matching Cell viability at 1000 nM (%) band.
Key: upper level

Exercise: Band of COC(=O)c1cc2c(cc1C)/C(=C(/Nc1ccc(C(=O)N3CCC4(CC3)C(=O)NCCCN4C)cc1)c1ccccc1)C(=O)N2 [Example 43] ?
Key: lower level

Exercise: Which class is correct for the following molecule? COC(=O)c1cc2c(cc1C)/C(=C(/Nc1ccc(C(=O)NCC3CCN(CCO)CC3)cc1)c1ccccc1)C(=O)N2 [Example 50]
Key: middle level

Exercise: Hey, which category is COC(=O)c1cc2c(cc1C)/C(=C(/Nc1ccc(C(=O)N3CCN(C)CC3)cc1)c1ccccc1)C(=O)N2 [Example 17] in, do you know?
Key: middle level

Exercise: Which band does COC(=O)c1cc2c(cc1C)/C(=C(/Nc1ccc(C(=O)NCCN3CCN(S(C)(=O)=O)CC3)cc1)c1ccccc1)C(=O)N2 [Example 44] fall in?
Key: middle level
